- Measured target: recombinant human MASP2 (amino acids 297-686, C-terminal His Tag) (human, UniProt O00187 297-686)
- Sequence (O00187 other isoform, or with tags, fused parts or gaps limits assumed): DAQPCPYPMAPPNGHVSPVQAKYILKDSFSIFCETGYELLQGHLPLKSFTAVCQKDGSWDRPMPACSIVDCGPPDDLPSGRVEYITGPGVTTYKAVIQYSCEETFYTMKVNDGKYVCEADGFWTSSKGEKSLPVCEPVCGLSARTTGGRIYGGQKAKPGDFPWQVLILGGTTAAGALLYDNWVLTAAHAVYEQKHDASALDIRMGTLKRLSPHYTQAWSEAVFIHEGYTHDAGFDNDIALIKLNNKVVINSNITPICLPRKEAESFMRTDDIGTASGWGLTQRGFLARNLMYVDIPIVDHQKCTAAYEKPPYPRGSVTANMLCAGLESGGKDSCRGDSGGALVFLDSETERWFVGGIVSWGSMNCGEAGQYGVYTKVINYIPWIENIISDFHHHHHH
- Protocol summary: cell-based or functional assay
Bridges are numbered along the chain shown (N, C = ends). Where no end group is shown, it is not given here. [ ]: non-standard residue; d: D form. Oic = O=C(O)[C@@H]1C[C@@H]2CCCC[C@@H]2N1; tBuAla = CC(C)(C)C[C@H](N)C(=O)O; Pen = CC(C)(S)[C@H](N)C(=O)O; Orn = NCCC[C@H](N)C(=O)O; Ahx = NCCCCCC(=O)O; Sar = CNCC(=O)O
Observed property: human MASP2 IC50 (nM)

Some binders with recorded human MASP2 IC50:
Binder	Result unit	human MASP2 IC50
cyclo(AGGICSRSLPPICIPD) (disulfide 5-13; also: TFA salt) [Example 18: A**GGIC+SRSLPPIC+IPD**]	nM	15
cyclo(GGICSRSLPPICIPD) (disulfide 4-12; also: TFA salt) [Example 15: G**GIC+SRSLPPIC+IPD**]	nM	300
cyclo([Ahx][Sar]ICSRS[tBuAla]PPI[Pen]IP) (disulfide 4-12; also: TFA salt) [Example 54: (Ahx)**-((N-Me)G)-IC+SRS-((tBu)A)-PPI-(Pen)+-IP**]	nM	33
[dK]ICSRS[tBuAla]PPI[Pen]I (lactam 1-C; disulfide 3-11; also: HCl salt) [Example 78: k++-IC+SRS-((tBu)A)-PPI-(Pen)+-I** (HCl Salt)]	nM	7
[Ahx]ICSRSLP[Oic]I[Pen]IPE-NH2 (disulfide 3-11; lactam N-14; also: TFA salt) [Example 75: (Ahx)**-IC+SRSLP-(Oic)-I-(Pen)+-IPE++-NH2]	nM	14

1. [Ahx][dA]ICSRSLP[Oic]I[Pen]IPE-NH2 (disulfide 4-12; lactam N-15; also: HCl salt) [Example 79: (Ahx)**-aIC+SRSLP-(Oic)-I-(Pen)+-IPE++-NH2 (HCl Salt)]
2. cyclo([Ahx]ICSRSLP[Oic]ICI) (disulfide 3-11; also: TFA salt) [Example 95: (Ahx)**-IC+SRSLP-(Oic)-IC+I**]
3. [Orn]AICSRS[tBuAla]PPI[Pen]IPD-NH2 (lactam 1-15; disulfide 4-12; also: TFA salt) [Example 61: (Orn)++-AIC+SRS-((tBu)A)-PPI-(Pen)+-IPD++-NH2]
4. [dK]ICSRS[tBuAla]PPI[Pen]I (lactam 1-C; disulfide 3-11; also: TFA salt) [Example 80: k++-IC+SRS-((tBu)A)-PPI-(Pen)+-I**]
List these items ordered by human MASP2 IC50, big to small. Please respond by ranking the labels in the order requested. 3, 2, 1, 4
(3: 310 nM, 2: 110 nM, 1: 45 nM, 4: 6.8 nM)
